- assay-name: M. tuberculosis growth inhibition, HTS (AID 1259417);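 also: bacteria grown with compound for 5 days at 37 °C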
- measurement-parameters: M. tuberculosis DsRed fluorescence growth inhibition; stronger effect = higher value; concentration not given here
Among all 1,100 compounds or so, about 760 (69%) were called active. So high a share suggests a set chosen from earlier hits. The list shows a part of the results.
result-type: inhibition

# map each compound to its inhibition
1. CCOc1ccccc1NC(=O)CSc1nc2ccc(NC(=O)c3ccccc3Cl)cc2s1
2. Cc1nnc(NC(=O)c2ccc3ccccc3c2)o1
3. O=C(NC12CC3CC(CC(C3)C1)C2)N1CCN(c2cccc(C(F)(F)F)c2)CC1
4. O=C(Nc1sc2c(c1C(=O)NCc1ccco1)CCC2)c1ccccc1[N+](=O)[O-]
5. Cc1cc(NS(=O)(=O)c2ccc(NC(=O)c3ccc(C(C)(C)C)cc3)cc2)no1
6. COC(=O)c1ccc(OCC(=O)Nc2ccccc2F)cc1
7. CCn1c2ccccc2c2cc(CN3CCC(N4CCN(c5ccccc5)CC4)CC3)ccc21

Reply:
1. -3.22% (inactive)
2. 98.3% (active)
3. 100% (active)
4. 3.29% (inactive)
5. 19.1% (inactive)
6. 14.1% (active)
7. -3.76% (inactive)

# map each compound to its inhibition
1. O=c1oc2ccccc2nc1/C=C(O)/C=C\c1ccccc1
2. COc1ccc(N2C(=O)C(F)(F)C2c2ccccc2F)cc1 (centres undefined)
3. COc1cccc(-c2csc(N3CCN(C(=O)NC45CC6CC(CC(C6)C4)C5)CC3)n2)c1
4. CSc1ncc(C(=O)NCc2ccco2)cn1

Reply:
1. 99.1% (active)
2. 33.6% (active)
3. 3.33% (inactive)
4. 35.2% (active)

# map each compound to its inhibition
1. Cc1ccc(CN=c2c([N+](=O)[O-])nn(-c3cccc(Cl)c3)n2O)cc1
2. COC(=O)COc1ccc(-c2ccc(C)cc2)cc1

Reply:
1: 99.8% (active); 2: 35.7% (active)

# map each compound to its inhibition
1. COC(=O)c1ccc(COC(=O)c2ccccc2Cl)cc1
2. COc1ccc2c(c1)CCC1Sc3ccccc3N=C21 (centres undefined)
3. O=C(C1CCN(c2nnc(-n3cccc3)s2)CC1)N1CCc2ccccc2C1
4. CCOC(=O)COc1ccc2c(c1)c(C(=O)OCC)c(C)n2CC
5. O=C(NCc1ccco1)c1cc([N+](=O)[O-])cc([N+](=O)[O-])c1
6. O=C(C1CCN(c2nnc(-n3cccc3)s2)CC1)N1CCN(c2cccc(C(F)(F)F)c2)CC1
7. O=C(CSc1nnc(Cc2ccccc2)o1)Nc1nccs1

Reply:
0.593% (inactive)
1.21% (inactive)
70.1% (active)
51.2% (active)
97.8% (active)
68.1% (active)
1.22% (inactive)

====

- assay-name: M. tuberculosis growth inhibition, HTS (AID 1259417);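 also: bacteria grown with compound for 5 days at 37 °C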
- measurement-parameters: M. tuberculosis growth inhibition; stronger effect = higher value; concentration not given here
Screen size: about 1,100 compounds; about 760 (69%) were called active. So high a share suggests a set chosen from earlier hits. Some of the results follow.
Output: class label from inhibition. Mapping: Low: < 50%; Mid: ≥ 50% and < 90%; High: ≥ 90%

Before answering, review these 5 worked examples.
Ask: Class (by measured inhibition) for `CCOC(=O)C(/C=C(\C#N)C(=O)OCC)=C(/N)N1CCN(c2ccc(Cl)cc2)CC1`
Reply: Low

Ask: Next: `Brc1ccc(-c2nn(-c3ccccc3)cc2CNCc2ccccc2)cc1`
Reply: Low

Ask: Next: `c1ccc(-c2nc(NCCCn3ccnc3)c3oc4ccccc4c3n2)cc1`
Reply: High

Ask: Next: `O=C(Oc1ccccc1)c1cccc2cccnc12`
Reply: High

Ask: Next: Cc1ccc(-c2csc3ncn(C(C)C(=O)OCc4ccccc4Cl)c(=O)c23)cc1 (stereo unspecified)
Reply: Low

Next:
Ask: Class (by measured inhibition) for `COc1ccc(C(=O)Oc2ccc(C(=O)OCc3ccccc3)cc2)cc1OC`
Reply: Low

Ask: Next: `COC(=O)COc1ccc2c(=O)c(-c3ccccc3Cl)coc2c1`
Reply: High

Ask: Next: `Cc1ccc(NC(=O)N2CCC(c3nc4c(nnn4Cc4cccc(Cl)c4)c(=O)[nH]3)CC2)cc1`
Reply: High

Ask: Next: O=C(NCc1cccs1)c1cc2n(n1)C(C(F)(F)F)CC(c1ccc3c(c1)OCO3)N2 (stereo unspecified)
Reply: Low

Ask: Next: `CC(=O)c1cccc(Nc2nc(-c3ccccn3)cs2)c1`
Reply: Mid

Ask: Next: `COc1ccc(Nc2nc(-c3ccccn3)cs2)c(OC)c1`
Reply: Mid

Ask: Next: `O=C(OCC#CCSc1nnc(-c2ccc([N+](=O)[O-])cc2)o1)c1cccs1`
Reply: Mid

Ask: Next: CC(Oc1ccc(C(=O)NC2CCCCC2)cc1)C(=O)OCc1ccccc1Cl (stereo unspecified)
Reply: Mid

Ask: Next: `Cn1c(Sc2cnn(-c3ccccc3)c(=O)c2Br)nnc1-c1ccccc1`
Reply: Mid

Ask: Next: `COc1ccc(-c2c(C)[nH]n3c(=O)c(Cc4ccccc4)c(C)nc23)cc1`
Reply: Mid

Ask: Next: Cc1ccc(C2CC(C(F)(F)F)n3nc(C(=O)NCc4ccco4)cc3N2)cc1 (stereo unspecified)
Reply: Mid

Ask: Next: `CSc1ncnc2c1ncn2CC(=O)Nc1ccc(C)c(C)c1`
Reply: Low

Ask: Next: `Cc1ccc(NC(=O)CSc2ccc(-c3ccccn3)nn2)cc1`
Reply: High

Ask: Next: `C[n+]1c2n(c3ccccc31)N=C(c1cc(C(C)(C)C)c(O)c(C(C)(C)C)c1)CS2`
Reply: Low

Hello, the source for this data is PubChem BioAssay AID1259417, in case you need it.
